# Tested on: RAW-Dual (murine macrophage reporter line)
# method-notes: IRF reporter (Lucia luciferase) activity fold change vs agonist alone; higher = enhanced IRF activity
# condition-summary: modulator concentration 10 µM; agonist: LPS 0.1 ug/mL
observable: IRF reporter
One number for each entry.

Ask | State its IRF reporter for this compound: CCCOc1ccc(-c2ccc(-c3nc(Cc4ccc(OC)c(OC)c4)no3)cc2)cc1
Reply | 1.08

Each compound below has a reported value. Please supply its IRF reporter.
1. COc1cc(C=C2NC(=O)NC2=O)cc(I)c1OCc1ccccc1
2. CC1CCN(C2=NC(=O)C(=Cc3cccc4ccccc34)S2)CC1
3. COc1cccc(N2CC(C(=O)NC3CCN(c4nccn5c(C)nnc45)CC3)CC2=O)c1 (stereo not given)
4. Cc1cc(C)n2nc(C(=O)NN=Cc3ccc(N(C)C)cc3)nc2n1

Reply |
1: 1.37; 2: 1.54; 3: 1.17; 4: 1.37
